Test system: IGR37-GP cells (Dabrafenib-resistant)
TEST: Kinase inhibitor library screening, PrestoBlue cell viability, 1 or 10 μM, 72 h
CONDITION DETAILS: IGR37 GP; 1μΜ; 72 h; in %
EXPERIMENTAL ENDPOINT: cell viability, IGR37 GP, 1μΜ
Answers are plain numbers.

Field: example entries. Status: answers known.
[
  {
    "MOLECULE": "CN1CCN(c2ccc3nc(-c4c(N)c5c(F)cccc5[nH]c4=O)[nH]c3c2)CC1",
    "ENDPOINT RESULT": 99.9
  },
  {
    "MOLECULE": "O=C1NC(=O)C(c2ccccc2[N+](=O)[O-])=C1Nc1ccc(O)c(Cl)c1",
    "ENDPOINT RESULT": 94.9
  },
  {
    "MOLECULE": "Cc1cnc(Nc2ccc(N3CCN(C)CC3)cc2)nc1Nc1cccc(S(=O)(=O)NC(C)(C)C)c1",
    "ENDPOINT RESULT": 98.5
  },
  {
    "MOLECULE": "O=C(NOCC(O)CO)c1cc(Br)c(F)c(F)c1Nc1ccc(I)cc1F (stereo not shown)",
    "ENDPOINT RESULT": 76.0
  },
  {
    "MOLECULE": "CCOc1cc2ncc(C#N)c(Nc3ccc(OCc4ccccn4)c(Cl)c3)c2cc1NC(=O)/C=C/CN(C)C",
    "ENDPOINT RESULT": 81.2
  },
  {
    "MOLECULE": "COc1cccc(-c2cc(=O)c3ccccc3o2)c1N",
    "ENDPOINT RESULT": 94.1
  }
]

Proceed to the following item.
Q. What measured cell viability, IGR37 GP, 1μΜ goes with `O=C(NOCC1CC1)c1ccc(F)c(F)c1Nc1ccc(I)cc1Cl` ?
A. 84.8

----------
System: IGR37-XP cells (Vemurafenib-resistant)
TEST: Kinase inhibitor library screening, PrestoBlue cell viability, 1 or 10 μM, 72 h
CONDITION DETAILS: IGR37 XP; 1μΜ; 72 h; in %
EXPERIMENTAL ENDPOINT: cell viability, IGR37 XP, 1μΜ

Field: example entries. Status: answers known.
[
  {
    "COMPOUND": "C[C@@H]1CCN(C(=O)CC#N)C[C@@H]1N(C)c1ncnc2[nH]ccc12.O=C(O)CC(O)(CC(=O)O)C(=O)O [Tofacitinib citrate (CP-690550 citrate)]",
    "cell viability, IGR37 XP, 1μΜ": 104.3
  },
  {
    "COMPOUND": "Cc1cnc(Nc2ccc(OCCN3CCCC3)cc2)nc1Nc1cccc(S(=O)(=O)NC(C)(C)C)c1 [TG101348 (SAR302503)]",
    "cell viability, IGR37 XP, 1μΜ": 94.2
  },
  {
    "COMPOUND": "CNC(=O)c1ccccc1Nc1nc(Nc2ccc(N3CCOCC3)cc2OC)ncc1Cl",
    "cell viability, IGR37 XP, 1μΜ": 34.8
  },
  {
    "COMPOUND": "COc1cc2c(N3CCN(C(=O)Nc4ccc(OC(C)C)cc4)CC3)ncnc2cc1OCCCN1CCCCC1",
    "cell viability, IGR37 XP, 1μΜ": 103.1
  },
  {
    "COMPOUND": "O=C(NOCC(O)CO)c1cc(Br)c(F)c(F)c1Nc1ccc(I)cc1F (stereo not shown)",
    "cell viability, IGR37 XP, 1μΜ": 63.3
  },
  {
    "COMPOUND": "N#C/C(=C\\c1ccc(O)c(O)c1)C(=O)NCc1ccccc1",
    "cell viability, IGR37 XP, 1μΜ": 104.5
  }
]

Q. What measured cell viability, IGR37 XP, 1μΜ goes with `CC(=O)Nc1cccc(-n2c(=O)n(C3CC3)c(=O)c3c(Nc4ccc(I)cc4F)n(C)c(=O)c(C)c32)c1` ?
A. 38.3

----------
Tested on: A375 cells (parental)
TEST: Kinase inhibitor library screening, PrestoBlue cell viability, 1 or 10 μM, 72 h
CONDITION DETAILS: A375 Parental; 1μΜ; 72 h
EXPERIMENTAL ENDPOINT: cell viability (kinase inhibitor library screening) (%)
Answers are plain numbers, in %.

Field: example entries. Status: answers known.
[
  {
    "MOL SMILES": "CC(=O)NCC(=O)N1[C@@H]2CC[C@H]1c1ccc(Nc3ncc(C(F)(F)F)c(NC4CCC4)n3)cc12",
    "UOM": "%",
    "ENDPOINT RESULT": 32.3
  },
  {
    "MOL SMILES": "Cc1cn(-c2cc(NC(=O)c3ccc(C)c(Nc4nccc(-c5cccnc5)n4)c3)cc(C(F)(F)F)c2)cn1",
    "UOM": "%",
    "ENDPOINT RESULT": 102.9
  },
  {
    "MOL SMILES": "Nc1nc(Nc2ccc(S(N)(=O)=O)cc2)nn1C(=O)c1c(F)cccc1F",
    "UOM": "%",
    "ENDPOINT RESULT": 89.1
  }
]

Q. What measured cell viability (kinase inhibitor library screening) goes with `CCCCOc1c(C(=O)c2c(F)cc(C)cc2F)c[nH]c2nncc1-2` ?
A. 91.4

----------
Tested on: A375-XP cells (Vemurafenib-resistant)
TEST: Kinase inhibitor library screening, PrestoBlue cell viability, 1 or 10 μM, 72 h
CONDITION DETAILS: A375 XP, 1μΜ, 72 h; in %
EXPERIMENTAL ENDPOINT: cell viability, A375 XP, 1μΜ
Give bare numbers.

[
  {
    "COMPOUND": "Cc1c(NC(=O)OC[C@@H]2COCCN2)cn2ncnc(Nc3ccc4c(cnn4Cc4cccc(F)c4)c3)c12 [BMS-599626 (AC480)]",
    "EXPERIMENTAL ENDPOINT": "cell viability, A375 XP, 1μΜ",
    "ENDPOINT RESULT": 107.8
  },
  {
    "COMPOUND": "C=CC(=O)Nc1cccc(Sc2nc(Nc3ccc(N4CCN(C)CC4)cc3)ncc2Cl)c1 [WZ8040]",
    "EXPERIMENTAL ENDPOINT": "cell viability, A375 XP, 1μΜ",
    "ENDPOINT RESULT": 104.2
  },
  {
    "COMPOUND": "COc1cc2c(N3CCN(C(=O)Nc4ccc(OC(C)C)cc4)CC3)ncnc2cc1OCCCN1CCCCC1 [Tandutinib (MLN518)]",
    "EXPERIMENTAL ENDPOINT": "cell viability, A375 XP, 1μΜ",
    "ENDPOINT RESULT": 107.0
  },
  {
    "COMPOUND": "C=CC(=O)Nc1cccc(Oc2nc(Nc3ccc(N4CCN(C)CC4)cc3)ncc2Cl)c1 [WZ3146]",
    "EXPERIMENTAL ENDPOINT": "cell viability, A375 XP, 1μΜ",
    "ENDPOINT RESULT": 94.3
  }
]

Required: cell viability, A375 XP, 1μΜ, one value per compound below.
1. CCC[C@H](NC(=O)/C(C#N)=C/c1cccc(Br)n1)c1ccccc1 [WP1130, reference compound]
2. CS(=O)(=O)CCNCc1ccc(-c2ccc3ncnc(Nc4ccc(OCc5cccc(F)c5)c(Cl)c4)c3c2)o1.Cc1ccc(S(=O)(=O)O)cc1.Cc1ccc(S(=O)(=O)O)cc1 [Lapatinib Ditosylate (Tykerb)]
3. Cc1cnc(Nc2ccc(OCCN3CCCC3)cc2)nc1Nc1cccc(S(=O)(=O)NC(C)(C)C)c1 [TG101348 (SAR302503)]

A.
[57.6, 114.8, 99.7]

----------
Tested on: 501Mel-XP cells (Vemurafenib-resistant)
TEST: Kinase inhibitor library screening, PrestoBlue cell viability, 1 or 10 μM, 72 h
CONDITION DETAILS: 501Mel XP; 10μΜ; 72 h; in %
Give measured Cell viability in kinase inhibitor library screening, 501Mel XP, 10μΜ for each item. Keep answers brief.
Answers are plain numbers.

Field: example entries. Status: answers known.
[
  {
    "COMPOUND": "O=C(NCCCNc1nc(Nc2cccc(NC(=O)N3CCCC3)c2)ncc1I)c1cccs1 [BX-795]",
    "ENDPOINT RESULT": 39.9
  },
  {
    "COMPOUND": "O=C(Nc1cccc(Nc2ncc(Br)c(NCCc3cnc[nH]3)n2)c1)N1CCCC1 [BX-912]",
    "ENDPOINT RESULT": 48.6
  },
  {
    "COMPOUND": "COc1ccc(COc2cc3oc(=O)c4cc(C(C)O)ccc4c3cc2OC)cc1 (centres unmarked) [Palomid 529]",
    "ENDPOINT RESULT": 30.6
  },
  {
    "COMPOUND": "CNC(=O)Nc1ccc(-c2nc(N3CC4CCC(C3)O4)c3cnn(C4CCC5(CC4)OCCO5)c3n2)cc1 [WYE-125132]",
    "ENDPOINT RESULT": 5.5
  },
  {
    "COMPOUND": "c1cncc(CN2CCC(n3ncc4c(N5CCOCC5)nc(-c5ccc6[nH]ccc6c5)nc43)CC2)c1 [WAY-600]",
    "ENDPOINT RESULT": 1.0
  }
]

Required: Cell viability in kinase inhibitor library screening, 501Mel XP, 10μΜ, one value per compound below.
1. CC[C@@H]1C(=O)N(C)c2cnc(Nc3ccc(C(=O)NC4CCN(C)CC4)cc3OC)nc2N1C1CCCC1 [BI 2536]
2. CC(C)n1nc(-c2ccc3oc(N)nc3c2)c2c(N)ncnc21 [INK 128]
3. Nc1ccc(C(=O)Nc2cccc(-c3nc(N4CCOCC4)c4oc5ncccc5c4n3)c2)cn1 [YM201636]
4. CCCS(=O)(=O)Nc1ccc(F)c(C(=O)c2c[nH]c3ncc(Cl)cc23)c1F [PLX-4720]
5. FC(F)c1nc2ccccc2n1-c1nc(N2CCOCC2)nc(N2CCOCC2)n1 [ZSTK474]
6. Cc1cc(C(C)Nc2ccccc2)c2nc(N3CCOCC3)cc(=O)n2c1 (centres unmarked) [TGX-221]
7. CNC(=O)c1ccc(C)c(-n2c(C)cc(OCc3ccc(F)cc3F)c(Br)c2=O)c1 [PH-797804]

A.
1: -0.237; 2: 2.4; 3: 17.1; 4: 64.4; 5: 2.5; 6: 67.8; 7: 84.3

Required: Cell viability in kinase inhibitor library screening, 501Mel XP, 10μΜ, one value per compound below.
1. COCCOc1ccc2c(c1)ncn2-c1ccc2cccc(N3CCC(N)CC3)c2n1 [CP 673451]
2. COc1cc(OC)c(/C=C/S(=O)(=O)Cc2ccc(OC)c(NCC(=O)O)c2)c(OC)c1 [Rigosertib (ON-01910)]
3. Cc1nc(NC(=O)N2CCC[C@H]2C(N)=O)sc1-c1csc(C(C)(C)C)n1 [A66]

A.
62.2
14.7
65.7

Required: Cell viability in kinase inhibitor library screening, 501Mel XP, 10μΜ, one value per compound below.
1. CCn1nnc2c(N3CCOCC3)nc(-c3ccc(NC(=O)Nc4ccc(C(=O)N5CCN(C)CC5)cc4)cc3)nc21 [PKI-402]
2. O=C1NC(=O)/C(=C/c2ccc(-c3ccc(F)cc3O)o2)S1 [AS-252424]

A.
1: -0.1; 2: 84.7
